# tested_system: AKT3 (human)
# method_summary: radiometric filter-binding kinase assay, Kinase HotSpot
# setup_conditions: compound 0.5 µM; ATP 10 µM
// residual activity lookup, one value per entry

Below: 3 compounds and their reported residual activity.
COc1ccc2c(c1)/C(=C/c1cnc[nH]1)C(O)=N2	101%
O=C1c2ccccc2-c2nc3nnnn3nc21	81.2%
CC(C)(C)c1cc(C=C(C#N)C#N)cc(Br)c1O	111%

IN: Would you kindly share the measured residual activity for N#Cc1c[nH]c2c[nH]/c(=N\Cc3cccnc3)cc2/c1=N\c1ccc(F)c(Cl)c1 ?
OUT: 95.1%

IN: Would you kindly share the measured residual activity for NC(=O)c1cccc(-c2cc(Nc3ccc(OC(F)(F)F)cc3)ncn2)c1 ?
OUT: 93.5%

IN: Would you kindly share the measured residual activity for C[C@@H]1CCN(C(=O)CC#N)C[C@@H]1N(C)c1ncnc2[nH]ccc12 ?
OUT: 85.8%

IN: Would you kindly share the measured residual activity for COc1cc(Nc2c(C#N)cnc3cc(OCCCN4CCN(C)CC4)c(OC)cc23)c(Cl)cc1Cl ?
OUT: 90.7%

IN: Would you kindly share the measured residual activity for COc1ccc(S(=O)(=O)N(CCO)c2ccccc2CN(C)C/C=C/c2ccc(Cl)cc2)cc1 ?
OUT: 105%
